# STUDY_TARGET: T1, mouse DLL4 extracellular domain (mouse, UniProt Q9JI71 27-532)
# T1 construct: extracellular domain; also called muDLL4 ECD; murine DLL4
# T1 sequence (Q9JI71 27-532): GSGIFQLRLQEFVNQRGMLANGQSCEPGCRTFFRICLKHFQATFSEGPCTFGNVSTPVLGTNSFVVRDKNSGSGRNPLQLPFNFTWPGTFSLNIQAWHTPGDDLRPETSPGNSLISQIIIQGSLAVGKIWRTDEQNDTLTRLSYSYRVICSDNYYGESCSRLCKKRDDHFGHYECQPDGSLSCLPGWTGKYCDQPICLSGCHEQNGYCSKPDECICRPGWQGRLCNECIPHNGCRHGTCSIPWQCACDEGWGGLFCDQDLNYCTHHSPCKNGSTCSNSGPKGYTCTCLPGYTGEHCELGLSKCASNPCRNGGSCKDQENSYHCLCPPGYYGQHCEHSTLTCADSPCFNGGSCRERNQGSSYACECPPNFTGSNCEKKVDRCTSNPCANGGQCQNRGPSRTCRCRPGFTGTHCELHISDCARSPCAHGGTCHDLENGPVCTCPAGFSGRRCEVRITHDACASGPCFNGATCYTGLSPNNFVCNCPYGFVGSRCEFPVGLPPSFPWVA
# ASSAY_NOTES: SPR (Biacore)
VALUE_TYPE: koff (s⁻¹)
Give the quantity in s⁻¹, number only.

>>> measured_value("15D6 rat anti-DLL4 monoclonal antibody (antibody, rat IgG2a, V domains shown, rat IgG2a/K hybridoma mAb; also called MC13-15D6.1G7) VH: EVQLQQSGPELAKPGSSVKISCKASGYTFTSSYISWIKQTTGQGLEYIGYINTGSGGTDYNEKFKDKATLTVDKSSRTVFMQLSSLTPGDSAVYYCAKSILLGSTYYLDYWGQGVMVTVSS VL: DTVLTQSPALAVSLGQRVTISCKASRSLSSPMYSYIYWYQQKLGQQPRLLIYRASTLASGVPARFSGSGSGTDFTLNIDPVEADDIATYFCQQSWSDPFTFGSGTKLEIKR")
"5.1e-05"

Now examine the next entry.
Record summary for 1A11 rat anti-DLL4 monoclonal antibody (antibody, rat IgG1, V domains shown, rat IgG1/K hybridoma mAb; also called MC13-1A11.2E1; 1A11 (rat mAb)) VH: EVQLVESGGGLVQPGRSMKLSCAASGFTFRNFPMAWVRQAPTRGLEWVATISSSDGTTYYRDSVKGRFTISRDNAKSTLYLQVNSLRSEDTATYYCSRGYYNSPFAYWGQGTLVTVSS VL: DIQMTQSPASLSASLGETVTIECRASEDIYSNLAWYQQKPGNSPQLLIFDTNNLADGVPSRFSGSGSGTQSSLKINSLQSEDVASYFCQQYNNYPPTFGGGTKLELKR : reported koff = 0.0029
